protein stability index reference
B1: KCNA3 (parent)
chain: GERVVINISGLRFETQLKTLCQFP

Variants of: B1
PROTOCOL_TEXT: protein stability index of a GFP-peptide fusion (GPS, HEK-293T) (PSI 1-6); higher = more stable;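 note: lentivirally expressed fusions sorted by FACS into six bins by GFP to DsRed ratio, PSI derived from sequencing read proportions per bin multiplied by bin number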
CONDITION_NOTES: c terminus: a fixed tail appended
Just the number.

# SEQ, protein stability index
records = [
    ("GERVVINISGLRFETQNKTLCQFP [L17N]", 2.04),
    ("GERVVINISGLRSETQLKTLCQFP [F13S]", 1.97),
    ("GERVVINISGERFETQLKTLCQFP [L11E]", 2.01),
    ("GERVVINISGLRFETQLKTGCQFP [L20G]", 1.95),
]

Shift focus to the following entry.
I would be grateful if you could share the reported protein stability index for GERVVINYSGLRFETQLKTLCQFP [I8Y] .
2
